Experiment: LC/MS/MS Method 2
Type: in vivo
Settings: rat, urine, oral, 10 mg/kg, Conc sulfone, LOQ 10 ng/mL, fipronil 10 mg/kg repeated, EPA group, this study
recorded_metric: concentration at 2 weeks (ng/mL)

smiles_input	result_number
N#Cc1nn(-c2c(Cl)cc(C(F)(F)F)cc2Cl)c(N)c1S(=O)(=O)C(F)(F)F	23

---

Target: α1β3γ2L GABAA receptors (Homo sapiens, UniProt P14867+P18507+P28472)
Sequence (P14867 28-456): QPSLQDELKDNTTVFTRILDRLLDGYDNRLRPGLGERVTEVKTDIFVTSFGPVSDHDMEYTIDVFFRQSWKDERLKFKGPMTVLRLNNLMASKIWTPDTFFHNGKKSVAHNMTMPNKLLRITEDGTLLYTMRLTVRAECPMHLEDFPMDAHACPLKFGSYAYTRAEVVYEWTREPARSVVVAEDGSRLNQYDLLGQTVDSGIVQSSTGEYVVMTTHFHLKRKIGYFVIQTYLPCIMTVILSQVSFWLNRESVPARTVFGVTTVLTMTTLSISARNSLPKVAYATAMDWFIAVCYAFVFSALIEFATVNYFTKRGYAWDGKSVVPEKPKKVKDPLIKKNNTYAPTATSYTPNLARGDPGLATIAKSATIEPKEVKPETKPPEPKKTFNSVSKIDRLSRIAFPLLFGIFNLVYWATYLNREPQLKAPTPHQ
Sequence (P28472 26-473): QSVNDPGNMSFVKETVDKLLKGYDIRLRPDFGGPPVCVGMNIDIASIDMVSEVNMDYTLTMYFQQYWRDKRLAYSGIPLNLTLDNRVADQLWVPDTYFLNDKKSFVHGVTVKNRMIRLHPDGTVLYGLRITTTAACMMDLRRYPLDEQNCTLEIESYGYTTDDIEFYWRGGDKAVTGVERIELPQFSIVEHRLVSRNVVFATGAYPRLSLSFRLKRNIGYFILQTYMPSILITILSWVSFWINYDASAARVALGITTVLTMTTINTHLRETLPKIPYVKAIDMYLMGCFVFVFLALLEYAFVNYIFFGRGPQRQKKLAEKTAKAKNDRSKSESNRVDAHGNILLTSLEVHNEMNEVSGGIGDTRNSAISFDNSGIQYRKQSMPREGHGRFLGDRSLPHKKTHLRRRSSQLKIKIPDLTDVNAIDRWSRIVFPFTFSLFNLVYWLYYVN
Sequence (P18507 40-475): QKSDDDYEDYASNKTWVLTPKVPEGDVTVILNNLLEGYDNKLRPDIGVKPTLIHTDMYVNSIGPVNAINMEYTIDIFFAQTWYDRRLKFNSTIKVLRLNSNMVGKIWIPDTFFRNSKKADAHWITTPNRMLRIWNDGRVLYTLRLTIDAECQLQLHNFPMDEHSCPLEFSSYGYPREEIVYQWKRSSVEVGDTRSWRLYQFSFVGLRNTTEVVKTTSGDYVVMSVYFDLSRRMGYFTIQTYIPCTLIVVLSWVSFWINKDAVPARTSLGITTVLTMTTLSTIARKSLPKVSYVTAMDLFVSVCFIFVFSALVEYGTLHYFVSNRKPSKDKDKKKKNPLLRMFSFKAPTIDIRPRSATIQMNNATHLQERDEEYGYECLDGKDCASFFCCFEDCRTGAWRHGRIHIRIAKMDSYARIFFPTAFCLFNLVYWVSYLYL
Type: cell-based
Settings: inhibitory EC50 on GABA-induced Cl- currents, 25 μM GABA, -80 mV

molecule	EC50
N#Cc1nn(-c2c(Cl)cc(C(F)(F)F)cc2Cl)c(N)c1O [hydroxy-fipronil]	~1000 nM
